- assay protocol: Log P value at the pH of 7.4
- Assay type: physicochemical
- conditions used: octanol/water, pH 7.4; read-out: LogD7.4
parameter: logD

compound=CCN1C[C@@H]([C@H](O)[C@H](CC2CCCCC2)NC(=O)[C@H](Cc2c[nH]cn2)NC(=O)[C@H](Cc2ccc(OC)cc2)NC(=O)N2C[C@@H](O)[C@@H](O)C2)OC1=O parameter=logD experimental_result=1.22
compound=CCN1C[C@@H]([C@H](O)[C@H](CC2CCCCC2)NC(=O)[C@H](Cc2cnc[nH]2)NC(=O)[C@@H](CC(=O)N2C[C@H](OCOC)[C@H](OCOC)C2)Cc2ccccc2)OC1=O parameter=logD experimental_result=2.31
compound="CCN1C[C@@H]([C@H](O)[C@H](CC2CCCCC2)NC(=O)[C@H](Cc2cnc[nH]2)NC(=O)[C@H](Cc2ccc(OC)cc2)NC(=O)N(C)CC(O)CO)OC1=O (stereo partly drawn)" parameter=logD experimental_result=1.42

====

- measured target: Renin (Homo sapiens)
- Sequence (P00797 whole entry): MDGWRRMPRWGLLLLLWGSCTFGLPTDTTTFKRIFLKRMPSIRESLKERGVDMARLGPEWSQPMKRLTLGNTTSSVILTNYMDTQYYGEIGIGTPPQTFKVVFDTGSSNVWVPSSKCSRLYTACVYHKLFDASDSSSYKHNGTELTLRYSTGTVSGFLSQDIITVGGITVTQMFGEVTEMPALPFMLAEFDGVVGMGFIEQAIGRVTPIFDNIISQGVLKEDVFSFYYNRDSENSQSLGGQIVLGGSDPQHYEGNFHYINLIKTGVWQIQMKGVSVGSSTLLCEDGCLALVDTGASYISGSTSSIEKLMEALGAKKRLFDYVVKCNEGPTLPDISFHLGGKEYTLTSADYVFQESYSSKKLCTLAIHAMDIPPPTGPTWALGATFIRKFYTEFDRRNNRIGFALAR
- assay protocol: Inhibitory activity against human plasma renin at pH 7.4
- Type: functional, cell-free
parameter: IC50 (nM)

compound_smiles=CCN1C[C@@H]([C@H](O)[C@H](CC2CCCCC2)NC(=O)[C@H](Cc2cnc[nH]2)NC(=O)[C@@H](CC(=O)N(C)CCOC)Cc2ccccc2)OC1=O result_unit=nM experimental_result=1.5
compound_smiles=CCN1C[C@@H]([C@H](O)[C@H](CC2CCCCC2)NC(=O)[C@H](Cc2cnc[nH]2)NC(=O)[C@H](Cc2ccc(OC)cc2)NC(=O)N2CCOCC2)OC1=O result_unit=nM experimental_result=9.6
compound_smiles=CCN1C[C@@H]([C@H](O)[C@H](CC2CCCCC2)NC(=O)[C@H](Cc2cnc[nH]2)NC(=O)[C@H](Cc2ccc(OC)cc2)NC(=O)N2C[C@H](OCOCCOC)[C@H](OCOCCOC)C2)OC1=O result_unit=nM experimental_result=26
